test: folding stability dG unfold (combined trypsin and chymotrypsin); higher = more stable
Assignment: determine reported folding stability dG unfold for the given sequences.
Answers are plain numbers, in kcal/mol.

Previously resolved entries follow.
                        biopolymer_sequence  result_units  reported_result
0  SAGGSAGGDKVTIESFHPENWYFRIRYPGNGKPISFPIKSVDELLDKIEPSGLPVEIEWMPPEESAGGSAGG [r6_33_TrROS]      kcal/mol          -0.0248
1  MIIIPNATPEEVKKIILDAAKKGKEIEILIEVDPNLGPKVIKALKDLPYVKKVEPLPDGSIKVYIDKKNLKS [r1_324_TrMRF]      kcal/mol             2.89

Please look at the following sequence next.
The value of folding stability dG unfold measured for the sequence SAGGSAGGSSPSSVSTYDIEFPDGTKIKITVTLGPGTPVVEITTLTESPPVKRVANTEEVKFESAGGSAGGS [r20_100_JUSTAS] turned out to be 0.696

Source of measurements: the supplement of paper PMC12764529
